Tested on: U251 CNS
Assay: NCI-60 one-dose screen, 48 h (100 = growth as untreated, 0 = no growth, -100 = all killed)
Settings: 10 µM unless noted
The panel holds about 83,000 compounds, 20% with a hit somewhere; the sample as a whole holds those more often.
Given measured growth, output satisfied if it is greater than or equal to 40% and not satisfied if not.

Task item: Identify whether the reported growth of the following compound is 40% or greater: COc1cc2ncnc(Nc3cccc(Cl)c3F)c2cc1OC(=O)N1CCN(C)C[C@H]1C
Reply: satisfied

Task item: Assess whether reported growth for Cc1cc([C@@H](C)Nc2ccccc2C(=O)O)c2nc(N3CCOCC3)cc(=O)n2c1 sits at 40% or higher.
Reply: satisfied

Task item: Does Cc1c(N)ccc(-c2ccc(N)c(C)c2S(=O)(=O)O)c1S(=O)(=O)O have a reported growth of at least 40%?
Reply: satisfied

Task item: Is growth for CC[C@@H]1C(=O)N(C)c2cnc(Nc3ccc(C(=O)NC4CCN(C)CC4)cc3OC)nc2N1C1CCCC1 at or above 40%?
Reply: not satisfied

Task item: Please indicate if the recorded growth for Cc1csc(-c2nnc(Nc3ccc(Oc4ncccc4-c4ccnc(N)n4)cc3)c3ccccc23)c1 meets or exceeds 40%.
Reply: not satisfied
